biological target: Cytochrome P450 2C9 (Homo sapiens); assay: blockers of cytochrome P450 2C9 activity – biochemical, luminescence, ADME assay, primary screen (AID 777); conditions: CYP2C9 Supersomes, luciferin-H conversion, at 5 µM, stronger effect = higher value
About 19,000 (20%) of roughly 96,000 compounds were called active. Not all results are given here.
So I've got a bunch of compounds here, and I need their inhibition values.
Answers are plain numbers, in %.

Consider the worked cases shown below.
| COMPOUND | TGT | READOUT UNITS | inhibition |
| --- | --- | --- | --- |
| CCOc1ccc(N=C2SC(C(=O)O)CC(=O)N2C)cc1 (stereo unspecified) | Cytochrome P450 2C9 (Homo sapiens) | % | -4.3 |
| CCCCNC(=O)c1ccccc1NC(=O)c1ccccc1N(C)S(C)(=O)=O | Cytochrome P450 2C9 (Homo sapiens) | % | -0.4 |
| Cc1ccc(N2C(=O)C3C(c4ccccc4)(C2=O)C3(c2ccccc2)c2ccccc2)cc1 (stereo unspecified) | Cytochrome P450 2C9 (Homo sapiens) | % | 28.1 |
| O=C(C(Cc1ccccc1)n1cccc1)N1CCN(C2CCCCC2)CC1 (stereo unspecified) | Cytochrome P450 2C9 (Homo sapiens) | % | 94 |
| CCOCCCNS(=O)(=O)Cc1ccccc1 | Cytochrome P450 2C9 (Homo sapiens) | % | -1.6 |

Shifting focus to the compound that follows.
Request: Which inhibition is listed for CC(Oc1ccc2ccccc2c1)C(=O)NNC(=S)NC(=O)c1ccco1 (stereo unspecified) ?
Response: 85.3

Source: PubChem BioAssay AID777
